Value source: ChEMBL document CHEMBL1649097

Target: Tyrosine-protein kinase receptor UFO (Homo sapiens, UniProt P30530)
Sequence (P30530 whole entry): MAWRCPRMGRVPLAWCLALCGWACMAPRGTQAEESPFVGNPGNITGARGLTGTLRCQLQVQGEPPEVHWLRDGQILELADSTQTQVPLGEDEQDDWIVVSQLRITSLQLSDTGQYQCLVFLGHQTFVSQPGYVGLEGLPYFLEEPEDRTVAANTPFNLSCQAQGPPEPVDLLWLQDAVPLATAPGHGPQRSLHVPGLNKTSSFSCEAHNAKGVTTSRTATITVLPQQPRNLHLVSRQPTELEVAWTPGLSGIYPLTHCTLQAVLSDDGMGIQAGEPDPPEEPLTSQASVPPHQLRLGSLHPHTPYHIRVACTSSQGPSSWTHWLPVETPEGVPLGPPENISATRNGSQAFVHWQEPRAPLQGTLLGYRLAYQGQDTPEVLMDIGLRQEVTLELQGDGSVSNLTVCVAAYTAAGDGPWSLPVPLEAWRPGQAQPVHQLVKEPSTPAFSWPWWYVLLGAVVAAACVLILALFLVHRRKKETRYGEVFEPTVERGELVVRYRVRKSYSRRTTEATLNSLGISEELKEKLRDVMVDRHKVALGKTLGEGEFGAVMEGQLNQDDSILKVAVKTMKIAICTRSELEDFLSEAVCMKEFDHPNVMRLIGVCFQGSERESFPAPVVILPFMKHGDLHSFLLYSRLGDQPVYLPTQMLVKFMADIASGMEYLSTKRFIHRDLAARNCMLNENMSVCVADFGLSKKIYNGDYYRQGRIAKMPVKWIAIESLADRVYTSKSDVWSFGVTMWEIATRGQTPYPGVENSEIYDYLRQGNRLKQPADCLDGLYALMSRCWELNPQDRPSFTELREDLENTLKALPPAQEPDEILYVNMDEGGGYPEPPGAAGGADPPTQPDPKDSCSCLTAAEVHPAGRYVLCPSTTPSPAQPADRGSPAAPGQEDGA
Assay: Inhibition of Axl by TR-FRET based LanthaScreen assay
pIC50: −log10 of the molar value.
endpointName: pIC50

> print(dat)
                               linenotation  valuereported
1  COc1cc(O)c2c(c1)CCC[C@H](O)CC(=O)/C=C\C[C@H](C)OC2=O         < 5.00
2  COc1cc(O)c2c(c1)CCC[C@H](O)[C@H](O)C(=O)/C=C\C[C@H](C)OC2=O         < 5.00

###

Biological target: Serine/threonine-protein kinase N1 (Homo sapiens)
Sequence (Q16512 whole entry): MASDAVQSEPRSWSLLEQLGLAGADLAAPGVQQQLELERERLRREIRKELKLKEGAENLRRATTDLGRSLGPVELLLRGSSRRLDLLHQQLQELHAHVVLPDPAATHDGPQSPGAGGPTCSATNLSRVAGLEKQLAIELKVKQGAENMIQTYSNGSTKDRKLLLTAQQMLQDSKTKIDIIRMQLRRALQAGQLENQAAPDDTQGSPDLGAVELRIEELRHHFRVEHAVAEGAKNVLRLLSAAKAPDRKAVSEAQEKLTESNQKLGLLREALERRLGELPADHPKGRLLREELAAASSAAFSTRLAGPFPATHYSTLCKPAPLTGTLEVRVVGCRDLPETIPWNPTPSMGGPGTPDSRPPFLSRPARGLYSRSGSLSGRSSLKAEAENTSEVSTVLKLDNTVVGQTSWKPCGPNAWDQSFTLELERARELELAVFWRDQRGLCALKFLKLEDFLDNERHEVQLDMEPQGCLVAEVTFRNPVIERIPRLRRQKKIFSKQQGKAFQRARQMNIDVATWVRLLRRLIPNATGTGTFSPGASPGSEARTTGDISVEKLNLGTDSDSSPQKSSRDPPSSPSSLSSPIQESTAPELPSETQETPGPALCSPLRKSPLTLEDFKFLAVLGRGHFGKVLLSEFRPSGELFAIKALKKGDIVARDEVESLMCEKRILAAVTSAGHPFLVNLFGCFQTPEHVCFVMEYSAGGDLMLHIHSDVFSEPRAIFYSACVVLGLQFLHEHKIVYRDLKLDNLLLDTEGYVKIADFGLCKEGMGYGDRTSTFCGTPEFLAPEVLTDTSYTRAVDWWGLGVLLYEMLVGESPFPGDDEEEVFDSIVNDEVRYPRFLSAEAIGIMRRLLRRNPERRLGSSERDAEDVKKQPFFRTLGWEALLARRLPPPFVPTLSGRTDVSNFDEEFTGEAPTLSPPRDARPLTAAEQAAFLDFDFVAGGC
pIC50: −log10 of the molar value.
Below, each of the compounds is paired with its reported pIC50 value.
endpointName: pIC50

> print(dat)
                               linenotation  valuereported
1  COc1cc(O)c2c(c1)CCC[C@H](O)CC(=O)/C=C\C[C@H](C)OC2=O         < 5.00
2  COc1cc(O)c2c(c1)CCC[C@H](O)[C@H](O)C(=O)/C=C\C[C@H](C)OC2=O         < 5.00

###

Biological target: Rho-associated protein kinase 2 (Homo sapiens, UniProt O75116)
Sequence (O75116 whole entry): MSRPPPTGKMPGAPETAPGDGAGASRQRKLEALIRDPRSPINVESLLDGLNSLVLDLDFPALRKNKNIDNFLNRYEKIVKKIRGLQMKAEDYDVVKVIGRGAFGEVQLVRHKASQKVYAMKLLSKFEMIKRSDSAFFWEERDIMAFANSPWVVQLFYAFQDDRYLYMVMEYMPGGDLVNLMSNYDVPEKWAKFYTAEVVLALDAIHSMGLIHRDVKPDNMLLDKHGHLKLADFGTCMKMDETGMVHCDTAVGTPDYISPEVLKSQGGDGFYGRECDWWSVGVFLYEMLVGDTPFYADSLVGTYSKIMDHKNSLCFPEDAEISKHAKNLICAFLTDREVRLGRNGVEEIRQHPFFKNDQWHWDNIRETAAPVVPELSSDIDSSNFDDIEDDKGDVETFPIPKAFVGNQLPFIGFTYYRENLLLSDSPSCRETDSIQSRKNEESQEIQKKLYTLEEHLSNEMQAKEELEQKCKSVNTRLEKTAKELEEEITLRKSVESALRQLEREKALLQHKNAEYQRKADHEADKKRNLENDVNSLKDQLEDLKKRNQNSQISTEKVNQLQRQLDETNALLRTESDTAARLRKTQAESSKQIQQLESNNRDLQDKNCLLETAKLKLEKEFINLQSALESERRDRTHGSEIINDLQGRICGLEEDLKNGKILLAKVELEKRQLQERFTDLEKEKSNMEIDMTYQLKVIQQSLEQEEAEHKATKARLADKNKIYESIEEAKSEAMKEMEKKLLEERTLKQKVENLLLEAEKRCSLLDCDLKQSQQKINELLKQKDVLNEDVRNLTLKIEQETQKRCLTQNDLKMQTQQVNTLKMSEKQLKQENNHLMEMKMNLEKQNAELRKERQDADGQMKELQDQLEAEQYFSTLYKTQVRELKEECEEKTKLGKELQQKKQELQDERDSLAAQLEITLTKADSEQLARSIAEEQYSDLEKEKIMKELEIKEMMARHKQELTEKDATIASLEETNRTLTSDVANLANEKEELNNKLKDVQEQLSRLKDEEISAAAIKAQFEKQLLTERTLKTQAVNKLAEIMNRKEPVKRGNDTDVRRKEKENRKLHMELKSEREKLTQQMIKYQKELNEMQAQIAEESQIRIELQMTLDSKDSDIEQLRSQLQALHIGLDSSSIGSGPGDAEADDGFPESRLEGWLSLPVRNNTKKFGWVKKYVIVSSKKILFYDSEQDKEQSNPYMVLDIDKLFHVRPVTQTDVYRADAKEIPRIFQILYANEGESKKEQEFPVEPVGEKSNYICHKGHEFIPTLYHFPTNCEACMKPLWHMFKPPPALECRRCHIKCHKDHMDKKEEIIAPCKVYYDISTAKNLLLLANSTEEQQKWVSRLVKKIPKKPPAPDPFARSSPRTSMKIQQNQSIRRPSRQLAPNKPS
pIC50: −log10 of the molar value.
Reported pIC50 values follow for various compounds
endpointName: pIC50

> print(dat)
                               linenotation  endpointname  valuereported
1  COc1cc(O)c2c(c1)CCC[C@H](O)[C@H](O)C(=O)/C=C\C[C@H](C)OC2=O         pIC50         < 5.00
2  COc1cc(O)c2c(c1)CCC[C@H](O)CC(=O)/C=C\C[C@H](C)OC2=O         pIC50         < 5.00

###

Entries with their measured IC50, system Receptor tyrosine-protein kinase erbB-2 (Homo sapiens):
endpointName: IC50

> print(dat)
                               linenotation                                testsystem  endpointname  valuereported
1  COc1cc(O)c2c(c1)CCC[C@H](O)CC(=O)/C=C\C[C@H](C)OC2=O  Receptor tyrosine-protein kinase erbB-2 (Homo sapiens)          IC50        > 10 µM
2  COc1cc(O)c2c(c1)CCC[C@H](O)[C@H](O)C(=O)/C=C\C[C@H](C)OC2=O  Receptor tyrosine-protein kinase erbB-2 (Homo sapiens)          IC50        > 10 µM

###

Molecular target: Mitogen-activated protein kinase 14 (Homo sapiens, UniProt Q16539)
Sequence (Q16539 whole entry): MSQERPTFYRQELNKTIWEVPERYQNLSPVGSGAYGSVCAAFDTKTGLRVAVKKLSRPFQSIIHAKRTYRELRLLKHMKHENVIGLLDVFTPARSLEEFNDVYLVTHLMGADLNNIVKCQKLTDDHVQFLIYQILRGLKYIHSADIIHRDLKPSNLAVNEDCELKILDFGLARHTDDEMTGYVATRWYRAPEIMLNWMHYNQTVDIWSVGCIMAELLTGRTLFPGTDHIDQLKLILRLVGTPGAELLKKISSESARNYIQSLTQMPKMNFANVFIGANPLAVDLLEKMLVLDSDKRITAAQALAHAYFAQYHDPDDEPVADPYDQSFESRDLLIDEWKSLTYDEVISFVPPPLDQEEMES
Experiment: Inhibition of p38alpha by Caliper mobility shift assay
pIC50: −log10 of the molar value.
endpointName: pIC50

> print(dat)
                               linenotation                                testsystem  valuereported
1  COc1cc(O)c2c(c1)CCC[C@H](O)[C@H](O)C(=O)/C=C\C[C@H](C)OC2=O  Mitogen-activated protein kinase 14 (Homo sapiens, UniProt Q16539)         < 5.00
2  COc1cc(O)c2c(c1)CCC[C@H](O)CC(=O)/C=C\C[C@H](C)OC2=O  Mitogen-activated protein kinase 14 (Homo sapiens, UniProt Q16539)         < 5.00

###

Biological target: Glycogen synthase kinase-3 beta (Homo sapiens)
Sequence (P49841 whole entry): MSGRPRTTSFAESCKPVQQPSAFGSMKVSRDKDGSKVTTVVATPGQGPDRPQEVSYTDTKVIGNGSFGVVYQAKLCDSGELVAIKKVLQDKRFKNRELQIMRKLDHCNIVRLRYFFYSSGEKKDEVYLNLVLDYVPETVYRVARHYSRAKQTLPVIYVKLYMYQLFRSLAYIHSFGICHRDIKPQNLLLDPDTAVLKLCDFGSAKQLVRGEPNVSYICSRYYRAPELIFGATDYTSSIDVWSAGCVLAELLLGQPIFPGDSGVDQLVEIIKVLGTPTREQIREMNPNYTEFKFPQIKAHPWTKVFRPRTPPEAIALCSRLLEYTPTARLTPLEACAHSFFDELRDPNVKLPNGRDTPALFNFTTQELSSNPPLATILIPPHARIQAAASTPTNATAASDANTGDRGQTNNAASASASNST
pIC50: −log10 of the molar value.
endpointName: pIC50

> print(dat)
                               linenotation  endpointname  valuereported
1  COc1cc(O)c2c(c1)CCC[C@H](O)CC(=O)/C=C\C[C@H](C)OC2=O         pIC50         < 5.00
2  COc1cc(O)c2c(c1)CCC[C@H](O)[C@H](O)C(=O)/C=C\C[C@H](C)OC2=O         pIC50         < 5.00

###

Target: Vascular endothelial growth factor receptor 2 (Homo sapiens)
Assay: Inhibition of VEGFR2 autophosphorylation by cell based assay
endpointName: IC50 (nM)

> print(dat)
                               linenotation  valuereported
1  COc1cc(O)c2c(c1)CCC[C@H](O)[C@H](O)C(=O)/C=C\C[C@H](C)OC2=O             57

###

Molecular target: Mitogen-activated protein kinase 1 (Homo sapiens, UniProt P28482)
Sequence (P28482 whole entry): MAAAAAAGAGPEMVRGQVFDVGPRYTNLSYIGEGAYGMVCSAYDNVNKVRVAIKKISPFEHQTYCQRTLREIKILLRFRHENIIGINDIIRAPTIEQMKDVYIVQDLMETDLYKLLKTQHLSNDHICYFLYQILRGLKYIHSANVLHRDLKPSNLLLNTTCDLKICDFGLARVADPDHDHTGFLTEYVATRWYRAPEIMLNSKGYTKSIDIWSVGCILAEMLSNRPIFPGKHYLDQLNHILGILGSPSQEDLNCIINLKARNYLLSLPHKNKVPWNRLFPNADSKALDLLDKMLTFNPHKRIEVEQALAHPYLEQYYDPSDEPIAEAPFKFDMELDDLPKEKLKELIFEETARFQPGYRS
Assay: Inhibition of ERK2 by Caliper mobility shift assay
Listing of entries alongside the reported IC50.
endpointName: IC50 (µM)

> print(dat)
                               linenotation  relationaloperator  valuereported
1  COc1cc(O)c2c(c1)CCC[C@H](O)[C@H](O)C(=O)/C=C\C[C@H](C)OC2=O                   =           0.95
2  COc1cc(O)c2c(c1)CCC[C@H](O)CC(=O)/C=C/C[C@H](C)OC2=O                   >             10
3  COc1cc(O)c2c(c1)CCC[C@H](O)CC(=O)/C=C\C[C@H](C)OC2=O                   =            6.4
4  COc1cc(O)c2c(c1)CCCCCC(=O)/C=C\C[C@H](C)OC2=O                   >             10

###

Molecular target: Tyrosine-protein kinase JAK2 (Homo sapiens)
Sequence (O60674 whole entry): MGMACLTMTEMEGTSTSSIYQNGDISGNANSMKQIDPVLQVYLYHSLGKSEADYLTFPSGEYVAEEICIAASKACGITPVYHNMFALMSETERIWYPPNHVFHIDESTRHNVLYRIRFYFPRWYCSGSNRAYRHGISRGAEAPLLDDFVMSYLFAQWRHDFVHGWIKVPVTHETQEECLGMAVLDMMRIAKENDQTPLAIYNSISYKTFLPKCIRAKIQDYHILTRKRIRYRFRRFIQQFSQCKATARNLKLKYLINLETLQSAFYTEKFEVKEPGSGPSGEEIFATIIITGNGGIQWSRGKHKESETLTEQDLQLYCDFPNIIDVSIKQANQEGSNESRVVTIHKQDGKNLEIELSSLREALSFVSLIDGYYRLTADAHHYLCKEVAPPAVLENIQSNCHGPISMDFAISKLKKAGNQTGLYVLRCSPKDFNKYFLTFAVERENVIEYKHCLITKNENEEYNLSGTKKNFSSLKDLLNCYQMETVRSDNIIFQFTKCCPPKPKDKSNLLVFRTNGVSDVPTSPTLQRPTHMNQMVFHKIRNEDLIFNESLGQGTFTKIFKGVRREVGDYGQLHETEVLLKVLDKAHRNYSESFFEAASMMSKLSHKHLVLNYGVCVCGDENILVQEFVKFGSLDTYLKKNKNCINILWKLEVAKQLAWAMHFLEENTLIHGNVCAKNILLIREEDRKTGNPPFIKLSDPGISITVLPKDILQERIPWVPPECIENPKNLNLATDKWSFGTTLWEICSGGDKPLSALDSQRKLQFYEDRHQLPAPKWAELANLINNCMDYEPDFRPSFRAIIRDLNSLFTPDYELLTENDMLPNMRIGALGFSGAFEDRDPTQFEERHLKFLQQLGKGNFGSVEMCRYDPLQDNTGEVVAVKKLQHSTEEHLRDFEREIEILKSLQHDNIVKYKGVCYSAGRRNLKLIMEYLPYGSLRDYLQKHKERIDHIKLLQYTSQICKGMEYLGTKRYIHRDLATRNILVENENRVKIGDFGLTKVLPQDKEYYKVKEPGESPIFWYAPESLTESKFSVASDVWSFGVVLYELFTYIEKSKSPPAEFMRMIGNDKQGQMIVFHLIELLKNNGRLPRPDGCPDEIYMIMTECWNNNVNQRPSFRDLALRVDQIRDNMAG
pIC50: −log10 of the molar value.
endpointName: pIC50

> print(dat)
                               linenotation  valuereported
1  COc1cc(O)c2c(c1)CCC[C@H](O)CC(=O)/C=C\C[C@H](C)OC2=O         < 5.00
2  COc1cc(O)c2c(c1)CCC[C@H](O)[C@H](O)C(=O)/C=C\C[C@H](C)OC2=O         < 5.00

###

Readings of pIC50 for the listed compounds
Biological target: Cyclin-dependent kinase 2 (Homo sapiens, UniProt P24941)
Experiment: Inhibition of CDK2A by Caliper mobility shift assay
pIC50: −log10 of the molar value.
endpointName: pIC50

> print(dat)
                               linenotation  valuereported
1  COc1cc(O)c2c(c1)CCC[C@H](O)CC(=O)/C=C\C[C@H](C)OC2=O         < 5.00
2  COc1cc(O)c2c(c1)CCC[C@H](O)[C@H](O)C(=O)/C=C\C[C@H](C)OC2=O         < 5.00

###

Property: IC50; scope: individual molecules
Target: ALK tyrosine kinase receptor (Homo sapiens, UniProt Q9UM73)
endpointName: IC50

> print(dat)
                               linenotation  valuereported
1  COc1cc(O)c2c(c1)CCC[C@H](O)CC(=O)/C=C\C[C@H](C)OC2=O         763 nM
2  COc1cc(O)c2c(c1)CCCCCC(=O)/C=C\C[C@H](C)OC2=O        3500 nM
3  COc1cc(O)c2c(c1)CCC[C@H](O)CC(=O)/C=C/C[C@H](C)OC2=O     > 10000 nM
4  COc1cc(O)c2c(c1)CCC[C@H](O)[C@H](O)C(=O)/C=C\C[C@H](C)OC2=O         763 nM
